Examples of compounds with documented Giant foxtail plant response rating follow.
System: giant foxtail
Experiment: Test B pre/postemergence giant foxtail
Type: in vivo, Setaria faberii
Conditions: Preemergence, Rate 62 g/ha; scale of 0 to 10 where 0 is no effect and 10 is complete control

{"compound": "CC(C)N(C(=O)n1oc(=O)n(N(C)C)c1=O)c1ccccc1 [Compound 225]", "Giant foxtail plant response rating": 8}
{"compound": "Cc1c(-n2c(=O)on(C(=O)N(c3ccc(Cl)cc3)C(C)C)c2=O)ccc2ccccc12 [Compound 336]", "Giant foxtail plant response rating": 0}
{"compound": "CC(C)N(C(=O)n1oc(=O)n([C@H](C)c2ccccc2)c1=O)c1ccc(F)cc1 [Compound 179]", "Giant foxtail plant response rating": 6}
{"compound": "C=C(C)CCn1c(=O)on(C(=O)N(c2ccc(F)cc2)C(C)C)c1=O [Compound 199]", "Giant foxtail plant response rating": 7}
{"compound": "CC(C)N(C(=O)n1oc(=O)n(C(C)C)c1=O)c1ccncc1 [Compound 663]", "Giant foxtail plant response rating": 0}
{"compound": "Cc1ccc(N(C(=O)n2oc(=O)n(-c3ccc4ccccc4c3)c2=O)C(C)C)cc1 [Compound 334]", "Giant foxtail plant response rating": 0}
{"compound": "CCc1cccc(C)c1-n1c(=O)on(C(=O)N(c2ccc(F)cc2)C(C)C)c1=O [Compound 201]", "Giant foxtail plant response rating": 2}
{"compound": "CSc1ccc(N(C(=O)n2oc(=O)n(-c3ccccc3C)c2=O)C(C)C)cc1 [Compound 205]", "Giant foxtail plant response rating": 0}

---

Tested on: corn
Assay: Test B pre/postemergence corn
Format: in vivo, Zea mays
Settings: Postemergence, Rate 125 g/ha; scale of 0 to 10 where 0 is no effect and 10 is complete control
outcome-measure: Corn plant response rating

{"smiles-record": "CC(C)N(C(=O)n1oc(=O)n(-c2ccnn2C)c1=O)c1ccc(F)cc1", "outcome-measure": "Corn plant response rating", "experimental-result": 0}
{"smiles-record": "CC(C)N(C(=O)n1oc(=O)n(C2CCCCC2)c1=O)c1ccc(F)cc1F", "outcome-measure": "Corn plant response rating", "experimental-result": 0}
{"smiles-record": "CCn1c(=O)on(C(=O)N(c2ccccc2)C(C)C)c1=O", "outcome-measure": "Corn plant response rating", "experimental-result": 5}

---

System: smallflower flatsedge
Experiment: Test B flood test smallflower flatsedge
Format: in vivo, Cyperus difformis
Conditions: Pre-emergence, Rate 1000 g/ha; scale 0 to 10 (0 no effect, 10 complete control)
Protocol: At the same time, these crop and weed species were also treated with postemergence applications of test chemicals formulated in the same manner. Plants ranged in height from 2 to 18 cm (1- to 4-leaf stage) for postemergence treatments. […] Treated plants and controls were maintained in a greenhouse for twelve to sixteen days, after which all species were compared to controls and visually evaluated. […]
outcome-measure: S. Flatsedge plant response rating

{"compound": "CCOC(=O)C(C)N(C(=O)n1oc(=O)n(-c2c(C)cccc2OC)c1=O)c1ccc(F)cc1 (stereo not drawn) [Compound 331]", "experimental-result": 0}
{"compound": "C=CCn1c(=O)on(C(=O)N(c2ccc(Cl)cc2)C(C)C)c1=O [Compound 105]", "experimental-result": 0}
{"compound": "COC(Cn1c(=O)on(C(=O)N(c2ccc(F)cc2)C(C)C)c1=O)OC [Compound 317]", "experimental-result": 0}
{"compound": "CCOC(=O)C(C)N(C(=O)n1oc(=O)n(C2CCCCC2)c1=O)c1ccc(F)cc1 (stereo not drawn) [Compound 280]", "experimental-result": 0}
{"compound": "CC(C)N(C(=O)n1oc(=O)n(-c2ccnn2C)c1=O)c1ccc(F)cc1 [Compound 124]", "experimental-result": 0}
{"compound": "Cc1cccc(C)c1-n1c(=O)on(C(=O)N(c2ccc(Cl)cc2)C(C)C)c1=O [Compound 47]", "experimental-result": 2}
